- tested.target: IDE (Homo sapiens, UniProt P14735)
- Construct: made in house; host or cells: bacteria
- Sequence (P14735 whole entry): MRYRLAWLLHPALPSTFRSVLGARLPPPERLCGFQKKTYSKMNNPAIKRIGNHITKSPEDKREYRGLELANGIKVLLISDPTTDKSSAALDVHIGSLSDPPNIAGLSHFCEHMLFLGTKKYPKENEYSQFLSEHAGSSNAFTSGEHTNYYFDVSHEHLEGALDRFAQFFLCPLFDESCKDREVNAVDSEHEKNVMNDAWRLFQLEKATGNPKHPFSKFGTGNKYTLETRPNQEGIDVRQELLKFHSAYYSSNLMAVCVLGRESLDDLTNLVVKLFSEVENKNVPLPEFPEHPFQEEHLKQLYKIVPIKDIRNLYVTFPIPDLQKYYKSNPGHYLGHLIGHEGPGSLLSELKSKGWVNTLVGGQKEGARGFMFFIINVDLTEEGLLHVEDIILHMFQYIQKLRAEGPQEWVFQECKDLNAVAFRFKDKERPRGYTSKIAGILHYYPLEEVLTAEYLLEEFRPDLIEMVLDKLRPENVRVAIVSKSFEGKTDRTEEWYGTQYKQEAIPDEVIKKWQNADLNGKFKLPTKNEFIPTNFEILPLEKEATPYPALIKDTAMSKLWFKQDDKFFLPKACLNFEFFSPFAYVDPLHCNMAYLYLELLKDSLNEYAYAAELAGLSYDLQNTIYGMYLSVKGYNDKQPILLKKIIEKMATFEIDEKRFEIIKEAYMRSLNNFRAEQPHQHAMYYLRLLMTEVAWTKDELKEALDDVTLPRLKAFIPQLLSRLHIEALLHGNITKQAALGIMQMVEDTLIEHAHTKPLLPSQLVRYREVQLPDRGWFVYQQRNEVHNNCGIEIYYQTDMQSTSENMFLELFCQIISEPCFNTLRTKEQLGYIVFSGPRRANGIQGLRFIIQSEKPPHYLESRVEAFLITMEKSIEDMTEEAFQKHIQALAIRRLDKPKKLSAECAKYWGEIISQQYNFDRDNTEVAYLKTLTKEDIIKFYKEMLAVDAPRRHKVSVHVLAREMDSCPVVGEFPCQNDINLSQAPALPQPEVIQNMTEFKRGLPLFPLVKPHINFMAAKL
- test.description: biochemical
- condition.notes: FRET1; listed in Table 1; read-out: IC50, summary of results of the initial test
pIC50: −log10 of the molar value. Ends that are not written are not given here.
pIC50 for assorted substances
property: pIC50

LNFPMPSR-NH2 [P12-2B]: < 3.30
LNFPMPSRPHSS-NH2 [P12-2A]: < 4.00
Ac-FPMPSRPH-NH2 [P12-2D]: < 3.30
Ac-SGKFFQRF [P12-4C]: < 3.30
WSPISGKF-NH2 [P12-4B]: < 3.30
Ac-MPSRPHSS [P12-2C]: < 3.30
Ac-PISGKFFQ-NH2 [P12-4D]: < 3.30
LNFPMPSRPHSS [P12-2]: < 4.00

----------
- tested.target: IDE (Homo sapiens)
- Construct: made in house; host or cells: bacteria
- test.description: biochemical
- condition.notes: initial test; percent of initial velocity relative to DMSO-only controls; individual replicates; read-out: Percent activity at 500 uM, Replicate 1-4
Bridge positions count the residues as written; N and C are the ends. Peptide text beside a SMILES is read from it.
property: remaining activity at 500 µM

CC[C@H](C)[C@@H]1NC(=O)[C@H](CO)NC(=O)[C@H](Cc2c[nH]c3ccccc23)NC(=O)[C@H](Cc2c[nH]c3ccccc23)NC(=O)[C@H](CO)NC(=O)[C@@H](NC(=O)[C@H](C)N)CSSC[C@@H](C(=O)NCC(=O)NCC(=O)NCC(=O)O)NC(=O)[C@H](CC(C)C)NC(=O)[C@H](Cc2c[nH]cn2)NC1=O [C7C-1B] (H-ACSWWSIHLCGGG-OH; disulfide 2-10 (inferred)): 30.3%
CC(C)C[C@@H]1NC(=O)[C@H](Cc2c[nH]cn2)NC(=O)CNC(=O)[C@H](C)NC(=O)[C@H](CC(N)=O)NC(=O)[C@@H](NC(=O)[C@H](C)N)CSSC[C@@H](C(=O)NCC(=O)O)NC(=O)[C@H](CCC(N)=O)NC(=O)[C@H](CO)NC1=O [C7C-2] (H-ACNAGHLSQCG-OH; disulfide 2-10 (inferred)): 48.4%
CC(=O)N[C@@H](Cc1c[nH]c2ccccc12)C(=O)N[C@@H](CC(=O)O)C(=O)N[C@@H](Cc1ccccc1)C(=O)N[C@@H](CCCNC(=N)N)C(=O)N[C@@H](CCC(N)=O)C(=O)N[C@@H](Cc1c[nH]c2ccccc12)C(=O)N[C@@H](Cc1c[nH]c2ccccc12)C(=O)N[C@@H](CCC(N)=O)C(N)=O [P12-1D]: 13.4%
CC[C@H](C)[C@@H]1NC(=O)[C@H](CO)NC(=O)[C@H](Cc2c[nH]c3ccccc23)NC(=O)[C@H](Cc2c[nH]c3ccccc23)NC(=O)[C@H](CO)NC(=O)[C@@H](NC(=O)[C@H](C)N)CSSC[C@@H](C(=O)NCC(N)=O)NC(=O)[C@H](CC(C)C)NC(=O)[C@H](Cc2c[nH]cn2)NC1=O [C7C-1A] (H-ACSWWSIHLCG-NH2; disulfide 2-10 (inferred)): 25.1%

----------
- tested.target: IDE (Homo sapiens, UniProt P14735)
- Construct: made in house; host or cells: bacteria
- test.description: biochemical
- condition.notes: judged as IC50 <100 uM?; N 4; read-out: Percent activity at 500 uM, Mean
Bridge positions count the residues as written; N and C are the ends. Peptide text beside a SMILES is read from it.
property: remaining activity at 500 µM (%)

CC(C)C[C@@H]1NC(=O)[C@H](Cc2c[nH]cn2)NC(=O)CNC(=O)[C@H](C)NC(=O)[C@H](CC(N)=O)NC(=O)[C@@H](NC(=O)[C@H](C)N)CSSC[C@@H](C(=O)NCC(N)=O)NC(=O)[C@H](CCC(N)=O)NC(=O)[C@H](CO)NC1=O [C7C-2A] (H-ACNAGHLSQCG-NH2; disulfide 2-10 (inferred)): 92.7
CC[C@H](C)[C@@H]1NC(=O)[C@H](CO)NC(=O)[C@H](Cc2c[nH]c3ccccc23)NC(=O)[C@H](Cc2c[nH]c3ccccc23)NC(=O)[C@H](CO)NC(=O)[C@@H](NC(=O)[C@H](C)N)CSSC[C@@H](C(=O)NCC(N)=O)NC(=O)[C@H](CC(C)C)NC(=O)[C@H](Cc2c[nH]cn2)NC1=O [C7C-1A] (H-ACSWWSIHLCG-NH2; disulfide 2-10 (inferred)): 59.5
CC(C)C[C@@H]1NC(=O)[C@H](Cc2c[nH]cn2)NC(=O)CNC(=O)[C@H](C)NC(=O)[C@H](CC(N)=O)NC(=O)[C@@H](NC(=O)[C@H](C)N)CSSC[C@@H](C(=O)NCC(=O)O)NC(=O)[C@H](CCC(N)=O)NC(=O)[C@H](CO)NC1=O [C7C-2] (H-ACNAGHLSQCG-OH; disulfide 2-10 (inferred)): 72.8
CC(C)C[C@H](NC(=O)[C@H](CO)NC(=O)[C@@H](N)CCC(N)=O)C(=O)N1CCC[C@H]1C(=O)N[C@@H](Cc1c[nH]c2ccccc12)C(=O)N[C@H]1CSSC[C@@H](C(=O)N[C@H](C(=O)N[C@H](C(=O)O)[C@@H](C)O)C(C)C)NC(=O)[C@H](Cc2c[nH]cn2)NC(=O)[C@@H]2CCCN2C(=O)[C@H](Cc2ccc(O)cc2)NC1=O [P12-3] (H-QSLPWCYPHCVT-OH; disulfide 6-10 (inferred)): 13.9
